Every entry's value here was drawn from paper PMC10023787.

# experimental system: MMP-2 (Homo sapiens, UniProt P08253)
# Construct: purchased Sino Biological 10082-HNAH
# Sequence (P08253 110-660): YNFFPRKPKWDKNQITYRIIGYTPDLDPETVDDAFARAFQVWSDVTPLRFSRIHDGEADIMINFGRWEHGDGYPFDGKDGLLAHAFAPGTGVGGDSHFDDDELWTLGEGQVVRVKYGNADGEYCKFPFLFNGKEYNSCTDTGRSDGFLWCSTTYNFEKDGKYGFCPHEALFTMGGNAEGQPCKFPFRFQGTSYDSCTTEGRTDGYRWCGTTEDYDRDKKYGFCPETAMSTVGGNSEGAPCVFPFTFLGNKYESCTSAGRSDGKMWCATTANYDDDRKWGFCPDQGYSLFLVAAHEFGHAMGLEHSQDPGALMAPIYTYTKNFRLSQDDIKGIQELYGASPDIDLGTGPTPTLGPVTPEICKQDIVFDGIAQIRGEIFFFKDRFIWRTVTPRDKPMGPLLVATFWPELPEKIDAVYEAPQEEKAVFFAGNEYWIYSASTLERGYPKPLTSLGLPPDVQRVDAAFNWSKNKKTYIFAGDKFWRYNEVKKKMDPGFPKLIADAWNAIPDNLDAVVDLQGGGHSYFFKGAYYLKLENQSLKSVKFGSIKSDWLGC
# procedure text: MMP-2 inhibition assay (fluorogenic peptide substrate)
# Format: biochemical
# condition info: MMP-2; concentration 243.80 µM
Decision: remaining activity (%) beneath 40 gives true (1); remaining activity (%) meeting or exceeding 40 gives false (0).

1. O=C(CNC(=O)NC12CC3CC(CC(C3)C1)C2)NCCCCCCCCNC(=O)c1cncc(O)c1 [66+828 Linker 4]; false (0)
2. Cc1cc(=O)[nH]c(-n2nc(C)c(CCC(=O)NCCSCC(=O)NCc3c[nH]nn3)c2C)n1 [693+787 Linker 24]; true (1)
3. Cc1cc(=O)[nH]c(-n2nc(C)c(CCC(=O)NCCOCCOCCNC(=O)c3cncc(O)c3)c2C)n1 [693+828 Linker 10]; true (1)
4. O=C(CNC(=O)NC12CC3CC(CC(C3)C1)C2)NCCSCC(=O)NCc1c[nH]nn1 [66+787 Linker 24]; false (0)
5. Cc1cc(=O)[nH]c(-n2nc(C)c(CCC(=O)NCCNC(=O)CSCCNC(=O)c3cncc(O)c3)c2C)n1 [693+828 Linker 24]; true (1)
6. O=C(CCCCCCC(=O)NCC12CC3CC(CC(C3)C1)C2)NCc1c[nH]nn1 [66+787 Linker 4]; false (0)
7. O=C(CNC(=O)NC12CC3CC(CC(C3)C1)C2)NCc1c[nH]nn1 [66+787 Linker 1]; false (0)
8. O=C(CCC(=O)NCc1c[nH]nn1)NCCOCCOCCNC(=O)Cn1cnc2c(oc3ccccc32)c1=O [182+787 Linker 10]; true (1)
9. O=C(Cn1cnc2c(oc3ccccc32)c1=O)NCc1c[nH]nn1 [182+787 Linker 1]; true (1)
10. Cc1cc(=O)[nH]c(-n2nc(C)c(CCC(=O)NCCCCCCCCNC(=O)c3cncc(O)c3)c2C)n1 [693+828 Linker 4]; false (0)
11. O=C(C=CCCCCNC(=O)c1cncc(O)c1)CC(=O)NCC12CC3CC(CC(C3)C1)C2 [66+828 Linker 12]; false (0)
12. Cc1cc(=O)[nH]c(-n2nc(C)c(CCC(=O)NCc3c[nH]nn3)c2C)n1 [693+787 Linker 1]; false (0)

###

# experimental system: bovine trypsin (Bos taurus)
# Construct: purchased Sigma-Aldrich T8003
# Sequence (P00760 24-246): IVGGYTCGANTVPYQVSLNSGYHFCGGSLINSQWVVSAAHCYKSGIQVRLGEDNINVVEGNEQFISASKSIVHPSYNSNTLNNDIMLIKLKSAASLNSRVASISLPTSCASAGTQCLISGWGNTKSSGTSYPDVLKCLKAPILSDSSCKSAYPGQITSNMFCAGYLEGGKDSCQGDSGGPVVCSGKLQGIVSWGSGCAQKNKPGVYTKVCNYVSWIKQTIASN
# procedure text: Trypsin inhibition assay (proteolytic activity on BApNA)
# Type: biochemical
# condition info: Concentration 320 nM; fraction of uninhibited activity; read-out: mean (Figure 3c, dose-response, relative trypsin activity)
Form field: remaining activity at 0.32 µM (one value per entry).
endpoint: remaining activity at 0.32 µM (%)

1) S=C=Nc1ccccc1I [Compound B, 2-iodophenyl isothiocyanate, reference compound]; 107
2) N=C(N)c1ccc(CNC(=S)Nc2cccc(I)c2)cc1; 102
3) N=C(N)c1ccc(CN)cc1 [4-Aminomethyl benzamidine, 4-aminomethyl benzamidine, reference compound]; 101
4) N=C(N)c1ccc(CNC(=O)C2CCC(C(=O)NCCNC(=S)Nc3cccc(I)c3)CC2)cc1 (centres unmarked); 90.1
5) N=C(N)c1ccc(CNCc2ccc(C(=O)NCCNC(=S)Nc3cccc(I)c3)cc2)cc1; 97.3

###

# remaining activity at 0.000512 µM listing for each entry below
# experimental system: bovine carbonic anhydrase II (CAII) (Bos taurus)
# Construct: purchased Sigma-Aldrich C7749
# Sequence (P00921 whole entry): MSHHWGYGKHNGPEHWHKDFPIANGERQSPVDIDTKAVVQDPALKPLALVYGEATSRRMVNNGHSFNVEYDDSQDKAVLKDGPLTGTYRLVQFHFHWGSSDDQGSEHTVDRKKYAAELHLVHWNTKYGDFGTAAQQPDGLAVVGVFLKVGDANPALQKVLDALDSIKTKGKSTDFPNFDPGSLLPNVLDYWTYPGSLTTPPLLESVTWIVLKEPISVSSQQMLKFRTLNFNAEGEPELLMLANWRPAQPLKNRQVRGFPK
# procedure text: Carbonic anhydrase II inhibition assay (esterase activity on p-nitrophenyl acetate)
# Assay type: biochemical
# condition info: 0.512 nM compound; source data of Fig. 2c; read-out: Normalized CA II Activity (Mean)
endpoint: remaining activity at 0.000512 µM

1. NS(=O)(=O)c1ccc(NC(=O)/C=C/c2ccc(-c3ccccc3C(F)(F)F)o2)cc1; 94%
2. NS(=O)(=O)c1ccc(NCc2ccc(C(=O)NCCNC(=O)/C=C/c3ccc(-c4ccccc4C(F)(F)F)o3)cc2)cc1; 93.6%
3. NS(=O)(=O)c1ccc(NC(=O)COc2ccccc2OCC(=O)NCCNC(=O)/C=C/c2ccc(-c3ccccc3C(F)(F)F)o2)cc1; 93.6%
4. NS(=O)(=O)c1ccc(NC(=O)COCC(=O)NCCNC(=O)/C=C/c2ccc(-c3ccccc3C(F)(F)F)o2)cc1; 100%
5. NS(=O)(=O)c1ccc(NC(=O)c2ccc(-n3cc(CCC(=O)NCCNC(=O)/C=C/c4ccc(-c5ccccc5C(F)(F)F)o4)nn3)cc2)cc1; 89%
